- Tested on: echovirus type 11 (Echo 11, Gregory)
- Assay Summary: In vitro anti-picornavirus activity (MTT), Echo 11
- Assay type: cell-based
- Conditions Used: HeLa-S3 cells, MTT method, 37° C.
# yes = IC50 Echo 11 below 0.3 µg/mL (exclusive); no = IC50 Echo 11 at/above 0.3 µg/mL

Query block: Could you please tell me whether IC50 Echo 11 recorded for `CCn1c(-c2cccc(OC)c2)c(C)c(=O)c2cc(C(C)C)ccc21` is less than 0.3 µg/mL?
Result block: no

Query block: Could you please tell me whether IC50 Echo 11 recorded for `Cc1c(OCC(C)C)ccc2c1c(=O)cc(-c1ccccc1)n2C` is less than 0.3 µg/mL?
Result block: yes

Query block: Could you please tell me whether IC50 Echo 11 recorded for `COc1cc2c(=O)c(C)c(-c3ccccc3)n(C)c2cc1C(C)C` is less than 0.3 µg/mL?
Result block: no

Query block: Could you please tell me whether IC50 Echo 11 recorded for `CCn1c(-c2cccc(F)c2)c(C)c(=O)c2cc(C(C)C)ccc21` is less than 0.3 µg/mL?
Result block: no

Query block: Could you please tell me whether IC50 Echo 11 recorded for `Cc1c(-c2ccccc2)n(C)c2cc(C(C)C)c(OC(C)C)cc2c1=O` is less than 0.3 µg/mL?
Result block: yes

Query block: Could you please tell me whether IC50 Echo 11 recorded for `CCn1c2c(c(=O)c3cc(C(C)C)ccc31)Cc1cc(OC)c(C)cc1-2` is less than 0.3 µg/mL?
Result block: yes

Query block: Could you please tell me whether IC50 Echo 11 recorded for `CCn1c(-c2ccccc2)c(C)c(=O)c2cc(OCC(C)C)ccc21` is less than 0.3 µg/mL?
Result block: no

Query block: Could you please tell me whether IC50 Echo 11 recorded for `Cc1c(-c2ccccc2)n(-c2ccc(F)cc2)c2ccc(C(C)C)cc2c1=O` is less than 0.3 µg/mL?
Result block: no

Query block: Could you please tell me whether IC50 Echo 11 recorded for `CCn1c(-c2cccs2)cc(=O)c2cc(C(C)C)ccc21` is less than 0.3 µg/mL?
Result block: yes

Query block: Could you please tell me whether IC50 Echo 11 recorded for `Cc1cc2c(c(C)c1OCC(C)C)c(=O)c(C)c(-c1ccccc1)n2C` is less than 0.3 µg/mL?
Result block: no

Query block: Could you please tell me whether IC50 Echo 11 recorded for `CCc1ccc2c(c1)Cc1c-2n(C)c2ccc(C(C)C)cc2c1=O` is less than 0.3 µg/mL?
Result block: yes

Query block: Could you please tell me whether IC50 Echo 11 recorded for `Cc1cc2c(cc1OCC(C)C)c(=O)c(C)c(-c1ccccc1)n2C` is less than 0.3 µg/mL?
Result block: yes

Query block: Could you please tell me whether IC50 Echo 11 recorded for `Cc1c(-c2cccs2)n(C)c2ccc(OCC(C)C)c(C)c2c1=O` is less than 0.3 µg/mL?
Result block: yes

Query block: Could you please tell me whether IC50 Echo 11 recorded for CCn1c2c(c(=O)c3cc(CC(C)C)ccc31)Cc1cc(OC)ccc1-2 [Compound B12] is less than 0.3 µg/mL?
Result block: yes

Query block: Could you please tell me whether IC50 Echo 11 recorded for `Cc1ccc(-c2cc(=O)c3cc(C(C)C)ccc3n2C)s1` is less than 0.3 µg/mL?
Result block: no

Query block: Could you please tell me whether IC50 Echo 11 recorded for `CCn1c2c(c(=O)c3cc(C(C)C)ccc31)Cc1ccccc1-2.Cl` is less than 0.3 µg/mL?
Result block: no

Query block: Could you please tell me whether IC50 Echo 11 recorded for `CCn1c(-c2ccccc2)c(C)c(=O)c2c(Cl)c(OCC(C)C)ccc21` is less than 0.3 µg/mL?
Result block: yes

Query block: Could you please tell me whether IC50 Echo 11 recorded for `Cc1c(-c2ccccc2)n(C)c2ccc(NCC(C)C)cc2c1=O` is less than 0.3 µg/mL?
Result block: yes

Query block: Could you please tell me whether IC50 Echo 11 recorded for `CC(C)c1ccc2c(c1)c(=O)cc(-c1ccc(Cl)c(Cl)c1)n2C` is less than 0.3 µg/mL?
Result block: no

Query block: Could you please tell me whether IC50 Echo 11 recorded for `COc1ccc2c(c1)Cc1c-2n(C)c2ccc(CC(C)C)cc2c1=O` is less than 0.3 µg/mL?
Result block: yes

Query block: Could you please tell me whether IC50 Echo 11 recorded for `Cc1ccc(-n2c(-c3ccccc3)c(C)c(=O)c3cc(C(C)C)ccc32)cc1` is less than 0.3 µg/mL?
Result block: no

Query block: Could you please tell me whether IC50 Echo 11 recorded for `CCn1c2c(c(=O)c3c(C(C)C)c(OC)ccc31)Cc1ccccc1-2` is less than 0.3 µg/mL?
Result block: yes

Query block: Could you please tell me whether IC50 Echo 11 recorded for `CCn1c(-c2nccs2)cc(=O)c2cc(C(C)C)ccc21` is less than 0.3 µg/mL?
Result block: no

Query block: Could you please tell me whether IC50 Echo 11 recorded for `CCn1c(-c2ccccc2)c(C)c(=O)c2cc(-c3ccccc3)ccc21` is less than 0.3 µg/mL?
Result block: yes

Query block: Could you please tell me whether IC50 Echo 11 recorded for `CCn1c(-c2cccs2)c(C)c(=O)c2cc(C(C)C)ccc21` is less than 0.3 µg/mL?
Result block: no

Query block: Could you please tell me whether IC50 Echo 11 recorded for `CCn1c(-c2ccn(C)c2)cc(=O)c2cc(C(C)C)ccc21` is less than 0.3 µg/mL?
Result block: no

Query block: Could you please tell me whether IC50 Echo 11 recorded for `CC(C)c1ccc2c(c1)c(=O)cc(-c1cccs1)n2C` is less than 0.3 µg/mL?
Result block: no

Query block: Could you please tell me whether IC50 Echo 11 recorded for `CCn1c(-c2ccc(OC)c(C)c2)cc(=O)c2cc(C(C)C)ccc21` is less than 0.3 µg/mL?
Result block: yes

Query block: Could you please tell me whether IC50 Echo 11 recorded for CCn1c2c(c(=O)c3cc(CC(C)C)ccc31)Cc1cc(OC)ccc1-2 [Compound B15] is less than 0.3 µg/mL?
Result block: yes

Query block: Could you please tell me whether IC50 Echo 11 recorded for `CCCc1ccc2c(c1)c(=O)c(C)c(-c1ccccc1)n2CC` is less than 0.3 µg/mL?
Result block: no

Query block: Could you please tell me whether IC50 Echo 11 recorded for `CCn1c2c(c(=O)c3cc(C(C)C)ccc31)Cc1cc(OC)c(OC)cc1-2` is less than 0.3 µg/mL?
Result block: no

Query block: Could you please tell me whether IC50 Echo 11 recorded for `CCc1ccc2c(c1)Cc1c-2n(CC)c2ccc(C(C)C)cc2c1=O` is less than 0.3 µg/mL?
Result block: yes

Query block: Could you please tell me whether IC50 Echo 11 recorded for `CCn1c(-c2cccc(C)c2)c(C)c(=O)c2c(Cl)c(OCC(C)C)ccc21` is less than 0.3 µg/mL?
Result block: yes

Query block: Could you please tell me whether IC50 Echo 11 recorded for `COc1ccc(-c2c(C)c(=O)c3cc(C(C)C)ccc3n2C)cc1` is less than 0.3 µg/mL?
Result block: no

Query block: Could you please tell me whether IC50 Echo 11 recorded for `Cc1c(-c2ccccc2)n(C)c2ccc(OCC(C)C)c(N)c2c1=O.Cl` is less than 0.3 µg/mL?
Result block: no

Query block: Could you please tell me whether IC50 Echo 11 recorded for `Cc1cc(-c2cc(=O)c3cc(C(C)C)ccc3n2C)ccc1OC(C)C` is less than 0.3 µg/mL?
Result block: yes
